All figures here come from patent US20230051589A1.

test system: IL-1β production in PMA-differentiated THP-1 cells; experiment: IL-1β production in PMA-differentiated THP-1 cells stimulated with gramicidin (hTHP-1 assay, 2% fetal bovine serum; Procedures 1-3); type: cell-based, human; conditions: hTHP-1 assay containing 2% fetal bovine serum, Table B2, class symbols; read-out: IC50
Each item that follows carries a reported IC50.

Example molecules with recorded IC50:
- CC(C)c1cc(S(N)(=O)=NC(=O)Nc2c3c(cc4c2CCC4)CCC3)c(F)cn1 (single isomer, unassigned) [Example 554]: 5 to 30 µM
- CC(OC(F)F)c1ccc(S(N)(=O)=NC(=O)Nc2c3c(cc4c2CCC4)CCC3)cc1 (single isomer, unassigned) [Example 642]: 5 to 30 µM

[ask] Param item = N[S@@](=O)(=NC(=O)Nc1c2c(cc3c1CCC3)CCC2)c1ccc(C(F)F)nc1 (single isomer, unassigned) ; retrieve measured IC50.
[reply] 1 to 5 µM

###

Tested on: IL-1β production in PMA-differentiated THP-1 cells
Assay: IL-1β production in PMA-differentiated THP-1 cells stimulated with gramicidin (hTHP-1 assay, 2% fetal bovine serum; Procedures 1-3)
Assay type: cell-based, human
Settings: hTHP-1 assay containing 2% fetal bovine serum, Table B2, class symbols; read-out: IC50
Protocol: The following protocol is suitable for testing the activity of the compounds disclosed herein. Procedure 1: IL-1β Production in PMA-Differentiated THP-1 Cells Stimulated with Gramicidin. […] THP-1 cells were treated with PMA (Phorbol 12-myristate 13-acetate) (20 ng/ml) for 16-18 hours. […] The plates were incubated for 18 h at 4° C. and read using the preset HTRF program (donor emission at 620 nm, acceptor emission at 668 nm) of the SpectraMax i3x spectrophotometer (Molecular Devices, software SoftMax 6). […]
pIC50: −log10 of the molar value.
Each item that follows carries a reported pIC50.

• NS(=O)(=NC(=O)Nc1c2c(cc3c1CCC3)CCC2)c1ccc(C2CCNC2)cc1F (stereo not shown) [Example 500] = 4.52 to 5.30
• CC(C)c1cc2c(cc1NC(=O)N=S(N)(=O)c1cnc(C(C)(C)O)s1)CCC2 (single isomer, unassigned) [Example 526] = 6.00 to 6.70
• CC(C)(O)c1csc(S(N)(=O)=NC(=O)Nc2c3c(c(C#N)c4c2CCC4)CCC3)n1 (single isomer, unassigned) [Example 541] = 6.70 to 7.40
• CC(C)(O)c1nc(CO)c(S(N)(=O)=NC(=O)Nc2c3c(cc4c2CCC4)CCC3)s1 (single isomer, unassigned) [Example 542] = 5.30 to 6.00
• CC(C)(O)c1csc([S@@](N)(=O)=NC(=O)Nc2c3c(cc4c2C(=O)CC4)CCC3)c1 (single isomer, unassigned) [Example 531] = 5.30 to 6.00

[ask] Param item = NS(=O)(=NC(=O)Nc1c2c(cc3c1CCC3)CCC2)c1cc2c(s1)COCC2 (single isomer, unassigned) [Example 693] ; retrieve measured pIC50.
[reply] 6.00 to 6.70

###

test system: IL-1β production in PMA-differentiated THP-1 cells; test: IL-1β production in PMA-differentiated THP-1 cells stimulated with gramicidin (hTHP-1 assay, 2% fetal bovine serum; Procedures 1-3); type: cell-based, human; conditions: hTHP-1 assay containing 2% fetal bovine serum, Table B2, class symbols; read-out: IC50
pIC50: −log10 of the molar value.
Each item that follows carries a reported pIC50.

• Cc1c(C2CC2)cc2c(c1NC(=O)N=S(N)(=O)c1cnc(C(C)(C)O)s1)CCC2 (single isomer, unassigned) [Example 563] = 6.70 to 7.40
• Cc1c(C2CC2)cc2c(c1NC(=O)N=S(N)(=O)c1sc(C(C)(C)O)cc1F)CCC2 (single isomer, unassigned) [Example 685] = 7.40 to 8.10
• CO[C@H]1COc2c(S(N)(=O)=NC(=O)Nc3c4c(cc5c3CCC5)CCC4)cnn2C1 (single isomer, unassigned) [Example 696] = 6.00 to 6.70

[ask] Param item = CN1CCc2cc(S(N)(=O)=NC(=O)Nc3c4c(cc5c3CCC5)CCC4)sc2C1 (single isomer, unassigned) [Example 558] ; retrieve measured pIC50.
[reply] 6.70 to 7.40

[ask] // same read-out, input: CN(C)Cc1ccc(S(N)(=O)=NC(=O)Nc2c3c(cc4c2CC4)CCC3)cc1 (single isomer, unassigned) [Example 581]
[reply] 4.52 to 5.30

[ask] // same read-out, input: CC(O)(CO)c1ncc(S(N)(=O)=NC(=O)Nc2c3c(c(C#N)c4c2CCC4)CCC3)s1 (single isomer, unassigned) [Example 636]
[reply] 6.70 to 7.40

###

tested on: IL-1β production in PMA-differentiated THP-1 cells; assay: IL-1β production in PMA-differentiated THP-1 cells stimulated with gramicidin (hTHP-1 assay, 2% fetal bovine serum; Procedures 1-3); type: cell-based, human; conditions: hTHP-1 assay containing 2% fetal bovine serum, Table B2, class symbols; read-out: IC50
READOUT LABEL: IC50

Example compounds with recorded IC50:
* CNC(C)(C)c1ccc(S(N)(=O)=NC(=O)Nc2c3c(cc4c2CCC4)CCC3)c(F)c1 (single isomer, unassigned) [Example 593] | 0.2 to 1 µM
* CN(C)Cc1ccc(S(N)(=O)=NC(=O)Nc2c3c(cc4c2CC4)CC3)cc1 (single isomer, unassigned) [Example 583] | 5 to 30 µM

[ask] Param item = CC(C)(O)c1cc(F)c(S(N)(=O)=NC(=O)Nc2c3c(cc4c2C(=O)CC4)CCC3)s1 (single isomer, unassigned) [Example 539] ; retrieve measured IC50.
[reply] 0.04 to 0.2 µM

[ask] // same read-out, input: CN(C)C(c1ccc(S(N)(=O)=NC(=O)Nc2c3c(cc4c2CCC4)CCC3)cc1)C(F)F (single isomer, unassigned) [Example 647]
[reply] 0.2 to 1 µM

[ask] // same read-out, input: CNCc1csc(S(N)(=O)=NC(=O)Nc2c3c(cc4c2CCC4)CCC3)c1 (single isomer, unassigned) [Example 691]
[reply] 0.04 to 0.2 µM

###

test system: IL-1β production in PMA-differentiated THP-1 cells; assay: IL-1β production in PMA-differentiated THP-1 cells stimulated with gramicidin (hTHP-1 assay, 2% fetal bovine serum; Procedures 1-3); type: cell-based, human; details: hTHP-1 assay containing 2% fetal bovine serum, Table B2, class symbols; read-out: IC50
pIC50: −log10 of the molar value.
READOUT LABEL: pIC50

Example molecules with recorded pIC50:
• CC(O)(CO)c1ncc(S(N)(=O)=NC(=O)Nc2c3c(cc4c2CCC4)CCC3)s1 (single isomer, unassigned) [Example 627] = 6.00 to 6.70
• CC(O)(CO)c1cc(F)c(S(N)(=O)=NC(=O)Nc2c3c(c(C#N)c4c2CCC4)CCC3)s1 (single isomer, unassigned) [Example 633] = 4.52 to 5.30

Now consider the entry below.
[ask] Param item = CC(C)(O)c1nc(CO)c(S(N)(=O)=NC(=O)Nc2c3c(cc4c2CCC4)CCC3)s1 (single isomer, unassigned) [Example 543] ; retrieve measured pIC50.
[reply] 7.40 to 8.10

###

Each item that follows carries a reported IC50.
test system: IL-1β production in PMA-differentiated THP-1 cells; assay: IL-1β production in PMA-differentiated THP-1 cells stimulated with gramicidin (hTHP-1 assay, 2% fetal bovine serum; Procedures 1-3); type: cell-based, human; settings: hTHP-1 assay containing 2% fetal bovine serum, Table B2, class symbols; read-out: IC50

Example compounds with recorded IC50:
• CC(OC(F)F)c1ccc(S(N)(=O)=NC(=O)Nc2c3c(cc4c2CCC4)CCC3)cc1 (single isomer, unassigned) [Example 641] = 1000 to 5000 nM
• CN(C)C(c1ccc(S(N)(=O)=NC(=O)Nc2c3c(cc4c2CCC4)CCC3)cc1)C(F)(F)F (single isomer, unassigned) [Example 667] = 200 to 1000 nM
• CC(C)(O)c1csc(S(N)(=O)=NC(=O)Nc2c3c(cc4c2CCC4=O)CCC3)c1 (single isomer, unassigned) [Example 598] = 200 to 1000 nM
• CN(C)C(c1ccc(S(N)(=O)=NC(=O)Nc2c3c(cc4c2CCC4)CCC3)cc1)C(F)F (single isomer, unassigned) [Example 644] = 200 to 1000 nM
• COCc1nc(C(C)(C)O)sc1S(N)(=O)=NC(=O)Nc1c2c(c(C#N)c3c1CCC3)CCC2 (single isomer, unassigned) [Example 533] = 200 to 1000 nM
• COc1ccc(Cn2nc(S(N)(=O)=NC(=O)Nc3c4c(cc5c3CCC5)CCC4)cc2C(C)(C)O)cc1 (stereo not drawn) [Example 457] = 200 to 1000 nM
• CN(C)C(c1ccc(S(N)(=O)=NC(=O)Nc2c3c(cc4c2CCC4)CCC3)cc1)C1CC1 (single isomer, unassigned) [Example 662] = 200 to 1000 nM
• CN1CCc2cc(S(N)(=O)=NC(=O)Nc3c4c(cc5c3CCC5)CCC4)sc2C1 (single isomer, unassigned) [Example 559] = 1000 to 5000 nM

Now consider the entry below.
[ask] Param item = CC(O)(CO)c1cc(F)c(S(N)(=O)=NC(=O)Nc2c3c(c(C#N)c4c2CCC4)CCC3)s1 (single isomer, unassigned) [Example 632] ; retrieve measured IC50.
[reply] 5000 to 30000 nM
